SARS-CoV-2 infection rate reference
Tested on: Vero E6 infected with SARS-CoV-2
measurement.notes: SARS-CoV-2 infection rate relative to infected DMSO; higher = more infection, active = 60 or less
condition.summary: 24 h
outcome.measure: SARS-CoV-2 infection rate (%)

INSERT INTO results (molecule, tested_system, measured) VALUES
  ('Nc1ccc([As](=O)(O)O)cc1 [arsanilic-acid] (10 µM)', 'Vero E6 infected with SARS-CoV-2', 103),
  ('C[C@]12CC[C@@H]3c4ccc(O)cc4CC[C@H]3[C@@H]1CCC2=O [estrone] (10 µM)', 'Vero E6 infected with SARS-CoV-2', 108),
  ('OCCOCCN1CCN(C(c2ccccc2)c2ccc(Cl)cc2)CC1 (stereo unspecified) [hydroxyzine] (10 µM)', 'Vero E6 infected with SARS-CoV-2', 104),
  ('COc1cc2c(cc1OC)CN(CCc1ccc(NC(=O)c3cccc4c(=O)c5cccc(OC)c5[nH]c34)cc1)CC2 [elacridar] (10 µM)', 'Vero E6 infected with SARS-CoV-2', 102),
  ('CCCCOc1c(C(=O)c2c(F)cc(C)cc2F)c[nH]c2nncc1-2 (10 µM)', 'Vero E6 infected with SARS-CoV-2', 104),
  ('CN1Cc2c(C(=O)OC(C)(C)C)ncn2-c2ccsc2C1=O (10 µM)', 'Vero E6 infected with SARS-CoV-2', 102);

These measurements were taken from the supplement of paper PMC13380429.
